Provenance of the data: ChEMBL document CHEMBL1201862

# Test system: SK-OV-3
# test: NCI tumour cell line growth inhibition, 48 h
Active and inactive are the calls of the source. Rule as the data show it: active = GI50 up to about 1.1 µM and inactive = higher.
readout_name: GI50

compound	test_system	data_value
O=C(O)c1ccc([N+](=O)[O-])c(P(=O)(O)O)c1	SK-OV-3	> 100 µM (inactive)
Nc1nc(O)c2ncn(C3C=CC(CO)C3)c2n1 (stereo not drawn)	SK-OV-3	> 100 µM (inactive)
CC(C)Oc1c(-c2ccc(F)cc2)c(O)c2c3c1oc(=O)n3C=CC2C (stereo not drawn)	SK-OV-3	24 µM (inactive)
COc1ccc(/C=c2\c(=O)[nH]c3nc4ccccc4c(=O)n23)cc1	SK-OV-3	> 100 µM (inactive)
CSc1nc(=O)cnn1C	SK-OV-3	> 100 µM (inactive)
C[N+]12CCCCC1C(CN1C(=O)Cc3c4ccccc4c(c4ccccc34)CC1=O)CCC2 (stereo not drawn)	SK-OV-3	> 100 µM (inactive)
O=C1CCN2C(=O)CCN12	SK-OV-3	> 100 µM (inactive)
Cc1c(C(=O)Nc2ccc(Cl)cc2)nc(N)nc1-c1cccc(Cl)c1	SK-OV-3	> 100 µM (inactive)
CC(C)(C)C(=O)Nc1ccccc1Br	SK-OV-3	> 100 µM (inactive)
C=CCC1(O)C(=O)OC2C(O)COC21O (stereo not drawn)	SK-OV-3	> 100 µM (inactive)
O=S(=O)(O)c1ccc2c(/N=N/c3ccc(/N=N/c4ccccc4)cc3)c(O)c(S(=O)(=O)O)cc2c1	SK-OV-3	> 100 µM (inactive)
Cc1ccc(/N=C2\C(=N/c3ccc(C)cc3)N(c3ccc(C)cc3)C(=S)N2C(=O)c2ccccc2)cc1	SK-OV-3	> 100 µM (inactive)
CC(C)c1nc(Cl)nc(Cl)c1Cl	SK-OV-3	4.58 µM (inactive)
C=CCNC(=S)N/C=C(\C#N)C(N)=O	SK-OV-3	> 100 µM (inactive)
NCc1ccc(O)c(O)c1O	SK-OV-3	> 78 µM (inactive)
CCCC(CCC(N)=O)(CCC(N)=O)[N+](=O)[O-]	SK-OV-3	> 100 µM (inactive)
CC(=O)Nc1ccc(OCC(O)CO)cc1 (stereo not drawn)	SK-OV-3	> 100 µM (inactive)
Cc1cn(C2CC(N=[N+]=[N-])C(COP(=O)(O)OCC3OC(n4cc(F)c(=O)[nH]c4=O)CC3O)O2)c(=O)[nH]c1=O (stereo not drawn)	SK-OV-3	> 100 µM (inactive)
Cc1ccccc1OC(C)C(=O)NN1C(=O)CSC1c1ccccc1 (stereo not drawn)	SK-OV-3	> 100 µM (inactive)
CC(C)C1COC(c2ccc3ccccc3c2-c2c(O[Si](C)(C)C(C)(C)C)ccc3ccccc23)=N1 (stereo not drawn)	SK-OV-3	19.8 µM (inactive)
CC(NC(=O)C(Cc1ccc(OC(=O)c2ccccc2)cc1)NC(=O)OC(C)(C)C)C(=O)NCC(=O)NC(Cc1ccccc1)NC(=O)OCc1ccccc1 (stereo not drawn)	SK-OV-3	> 100 µM (inactive)
CCc1ccccc1NC(=O)C1=C(C)NC(C)=C(C(=O)Nc2ccccc2CC)C1c1ccc2c(c1)OCO2	SK-OV-3	30.2 µM (inactive)
Cc1ccc(-c2cc(O)c3nc4ccccc4n3c2)cc1	SK-OV-3	> 100 µM (inactive)

###

# Test system: OVCAR-8
# test: NCI tumour cell line growth inhibition, 48 h
Activity calls are given as the source filed them. No stated cut-off is given here; in the data, active = GI50 up to about 1.1 µM and inactive = higher.
readout_name: GI50

compound	test_system	readout_name	data_value
N#CC(C#N)=Cc1cccc(Oc2ccccc2)c1	OVCAR-8	GI50	19.1 µM (inactive)
CC(C)CNCCc1ccccn1	OVCAR-8	GI50	> 100 µM (inactive)
OC(c1nc2ccccc2[nH]1)C(O)C(O)C(O)c1nc2ccccc2[nH]1 (stereo unspecified)	OVCAR-8	GI50	> 100 µM (inactive)
COc1ccc(C2Oc3ccc(Cl)cc3C=C2[N+](=O)[O-])cc1 (stereo unspecified)	OVCAR-8	GI50	> 100 µM (inactive)
N#Cc1c(-c2ccccc2)c(/N=N/c2ccc(F)cc2)c(=O)n2c1[nH]c1ccccc12	OVCAR-8	GI50	2.34 µM (inactive)
COC(=O)[C@H](C)NC(=O)[C@H](NS(=O)(=O)c1nc2ccccc2s1)c1ccccc1	OVCAR-8	GI50	16.7 µM (inactive)

###

# Tested on: IGROV-1
# test: NCI tumour cell line growth inhibition, 48 h
Active and inactive are the calls of the source. No stated cut-off is given here; in the data, active = GI50 up to about 1.1 µM and inactive = higher. Where a SMILES comes first, the peptide text is derived from it. The star is where a group is joined. Fmoc = O=C(OCC1c2ccccc2-c2ccccc21)*; OBn = c1ccc(CO*)cc1; tBu = CC(C)(C)*
Classes used: active, inactive

compound	test_system	classification
COC(=O)[C@H](C)NC(=O)[C@H](NS(=O)(=O)c1nc2ccccc2s1)c1ccccc1	IGROV-1	inactive
CC1(C)CCCCCCCCCC(C)(CCCO)C1=O (configuration not stated)	IGROV-1	inactive
Cc1ccc(C(=O)N/N=C(\N=N\c2ccccc2C(=O)O)c2ccc(N(C)C)cc2)cc1	IGROV-1	inactive
COc1ccc(C(=O)O)c2c(=O)c3cccnc3[nH]c12	IGROV-1	inactive
O=C1/C(=C/c2cccs2)NC(=S)N1CN1CCCCC1	IGROV-1	inactive
CN(C)c1[se]nc2c1c(=O)n(C)c(=O)n2C	IGROV-1	inactive
NC1=C(N2CCOCC2)C(=O)NC2=N/C(=C\c3ccccc3)C(=O)N21	IGROV-1	inactive
Cc1ccc(C2NC(=O)c3ccccc3N2)c(C)c1 (configuration not stated)	IGROV-1	inactive
CN(CCCNC(=O)c1cn(C)c2c1Cc1ccccc1-2)CCCNC(=O)c1cn(C)c2c1Cc1ccccc1-2	IGROV-1	inactive
CC(=O)OCC1OC(n2c(-c3ccc(C)cc3)cc(-c3ccco3)c(C#N)c2=S)C(OC(C)=O)C(OC(C)=O)C1OC(C)=O (configuration not stated)	IGROV-1	inactive
Cc1nc2c(N)ncnc2o1	IGROV-1	inactive
O=C(O)CCCCn1cnc2c(S)ncnc21	IGROV-1	inactive
COc1cccc(-c2cc(O)c3cc(N4CCCC4)ccc3n2)c1	IGROV-1	active
CC(=O)C(C)(C)CCC(C)(C)C(C)=O	IGROV-1	inactive
O=c1cc(N=P(c2ccccc2)(c2ccccc2)c2ccccc2)n(-c2ccccc2)c(=O)n1-c1ccccc1	IGROV-1	inactive
CC(OC(C)(C)C)C(NC(=O)OCC1c2ccccc2-c2ccccc21)C(=O)NC(Cc1ccccc1)C(=O)OCc1ccccc1 (configuration not stated) (Fmoc-Thr(tBu)-Phe-OBn; configuration not given here)	IGROV-1	inactive
Cc1ccc(C)c(COCCOCn2ccc(N)nc2=O)c1	IGROV-1	inactive
O=C(O)c1ccccc1NS(=O)(=O)c1ccc([N+](=O)[O-])cc1	IGROV-1	inactive
CC(C)CNCCc1ccccn1	IGROV-1	inactive
CCC(O)CC1OC2(CCC1C)CC1OC(=O)/C=C\C(C)(O)C(O)C(C)C(O)C(OC3CC(OC)C(O)C(C)O3)C(O)C(C)(O)CCC/C=C/C3CC(C)COC3(O)CC(O2)C1C (configuration not stated)	IGROV-1	inactive
C=CC1=CC(C)C[C@]1(O)C(=O)OC (some centres not stated)	IGROV-1	active
COc1cc(-c2[o+]c3cc(O)cc(OC4OC(CO)C(O)C(O)C4O)c3cc2OC2OC(CO)C(O)C(O)C2O)cc(OC)c1O (configuration not stated)	IGROV-1	inactive
C(=N\N=C1NCCN1)/c1ccc2ccccc2c1	IGROV-1	inactive
O=C1OC(C(O)C(O)C(O)CO)C(O)C1O (configuration not stated)	IGROV-1	inactive
C/C(=C1/N=C(c2cc([N+](=O)[O-])ccc2Cl)N(c2ccc(Br)cc2)C1=O)c1cc2ccccc2oc1=O	IGROV-1	inactive
O=c1[nH]c(=S)c2cc3c(=S)[nH]c(=O)n(CCO)c3nc2n1CCO	IGROV-1	inactive
Fc1cc(-c2cc(-c3ccccc3)n[nH]2)c(Cl)cc1Cl	IGROV-1	inactive
COC(=O)C1(Cc2ccccc2)Cc2cc3c(cc2C1O)CCC3 (configuration not stated)	IGROV-1	inactive
CC(O)(/C=C/c1ccccc1)P(=O)(O)c1ccccc1 (configuration not stated)	IGROV-1	inactive
CCC(=O)O[C@H]1CC[C@H]2[C@@H]3CCC4=C/C(=N/OC(=O)c5cccc6c(=O)c7ccccc7[nH]c56)CC[C@]4(C)[C@H]3CC[C@]12C	IGROV-1	inactive
COc1cccc(C2CC(=O)c3cccn32)c1 (configuration not stated)	IGROV-1	inactive
CC1=C(C)C(=O)c2c(cc3ccc4ccccc4n23)C1=O	IGROV-1	inactive
c1ccc2cc3n[se]nc3cc2c1	IGROV-1	inactive
CC(=O)Nc1ccc(/N=N\c2c(O)c(S(=O)(=O)O)cc3cc(S(=O)(=O)O)ccc23)cc1	IGROV-1	inactive
C=C(C)[C@@H]1CCC2=C[C@H](C/C(C)=C\C3=CC(C)=C(O3)[C@H]1O)OC2=O	IGROV-1	inactive
O=c1[nH]c(N/N=C\C(O)C(O)C(O)CO)nc2ccccc12 (configuration not stated)	IGROV-1	inactive
COc1ccc(/C=c2\c(=O)[nH]c3nc4ccccc4c(=O)n23)cc1	IGROV-1	inactive
Cc1ccccc1N(CCC#N)C1=NN(C(=O)CC(=O)Nc2ccc(Cl)cc2)C(c2ccccc2)C1 (configuration not stated)	IGROV-1	inactive
N#CC1(C#N)NC(c2cccnc2)C(C#N)(C#N)NC1c1cccnc1 (configuration not stated)	IGROV-1	inactive
O=C1C(C(c2ccc([N+](=O)[O-])cc2)N2CCOCC2)=C(O)C(c2ccccc2)N1c1ccccc1 (configuration not stated)	IGROV-1	inactive
C=CCP(=O)(CC=C)C(Cl)Cl	IGROV-1	inactive
c1ccc(SCCc2ccncc2)cc1	IGROV-1	inactive
